Tested on: Fer (mouse)
Assay: phosphorylation enrichment, bacterial display (enrichment ratio); higher = better substrate or ligand; peptides without Tyr show the background;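 note: 11-residue human phosphosite peptides and single-mutation variants displayed on the E. coli surface, counted by deep sequencing, each peptide's frequency after selection divided by its frequency in the unselected input library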;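 note: frequency after pTyr selection over input frequency; kinase dosed for 20-30% of maximal phosphorylation in three min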
property-name: phosphorylation enrichment
Enter a number only.

{"biosequence": "EMTRNYIIFIE [BCO2_Y294_G289E]", "assay-target": "Fer (mouse)", "phosphorylation enrichment": 0.487}
{"biosequence": "YAANYYKLLGN [ROR2_Y646_D644N]", "assay-target": "Fer (mouse)", "phosphorylation enrichment": 0.506}

Qu. Give the measured phosphorylation enrichment of KWRGQYDVAIE [BTK_Y425_K430E] .
Ans. 0.505

----------
Biological target: Fes (UniProt P07332)
Sequence (P07332 whole entry, looked up): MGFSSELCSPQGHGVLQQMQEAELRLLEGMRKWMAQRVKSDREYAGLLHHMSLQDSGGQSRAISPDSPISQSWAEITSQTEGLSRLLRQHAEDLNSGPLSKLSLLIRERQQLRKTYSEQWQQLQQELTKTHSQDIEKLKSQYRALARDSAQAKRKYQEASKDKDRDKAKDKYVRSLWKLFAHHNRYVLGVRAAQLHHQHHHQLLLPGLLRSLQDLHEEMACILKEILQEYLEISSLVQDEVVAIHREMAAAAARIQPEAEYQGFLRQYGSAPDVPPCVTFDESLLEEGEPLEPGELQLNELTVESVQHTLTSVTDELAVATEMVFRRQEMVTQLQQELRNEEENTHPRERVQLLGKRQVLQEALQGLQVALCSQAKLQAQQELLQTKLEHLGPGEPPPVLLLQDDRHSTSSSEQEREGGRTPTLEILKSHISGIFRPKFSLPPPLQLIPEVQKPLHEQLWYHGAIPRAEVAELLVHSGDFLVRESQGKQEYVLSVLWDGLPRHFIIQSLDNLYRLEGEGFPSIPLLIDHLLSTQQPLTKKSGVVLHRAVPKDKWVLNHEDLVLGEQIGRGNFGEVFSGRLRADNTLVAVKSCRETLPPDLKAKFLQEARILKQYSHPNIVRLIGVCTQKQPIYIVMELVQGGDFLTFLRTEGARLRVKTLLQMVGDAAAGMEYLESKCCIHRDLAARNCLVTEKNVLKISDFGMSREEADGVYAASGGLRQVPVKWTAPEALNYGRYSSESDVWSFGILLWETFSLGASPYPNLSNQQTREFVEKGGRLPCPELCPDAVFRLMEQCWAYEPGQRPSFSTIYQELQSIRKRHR
Test: phosphorylation enrichment, bacterial display (enrichment ratio); higher = better substrate or ligand; peptides without Tyr show the background
The following sequences are listed with their measured phosphorylation enrichment values.
Answer with a number only.

Some solved cases for reference:
{"biosequence": "QTWKTYVRQQQ [SFI1_Y164]", "assay-target": "Fes (UniProt P07332)", "phosphorylation enrichment": 1.02}
{"biosequence": "DFTEAYNSKIK [CLK1_Y305_P307S_YF]", "assay-target": "Fes (UniProt P07332)", "phosphorylation enrichment": 1.02}

Shift focus to the following entry.
Qu. For the sequence VEDPEYAVTQL [STOML2_Y124] , what phosphorylation enrichment is on record?
Ans. 0.997
